biological target: 5-HT4 receptors (Homo sapiens); test: GloSensor L9 assay for cAMP response; type: cell-based; details: agonist/inverse agonist assay; Ag. = agonist; Inv. Ag. = Inverse agonist
Sequence (Q13639 whole entry): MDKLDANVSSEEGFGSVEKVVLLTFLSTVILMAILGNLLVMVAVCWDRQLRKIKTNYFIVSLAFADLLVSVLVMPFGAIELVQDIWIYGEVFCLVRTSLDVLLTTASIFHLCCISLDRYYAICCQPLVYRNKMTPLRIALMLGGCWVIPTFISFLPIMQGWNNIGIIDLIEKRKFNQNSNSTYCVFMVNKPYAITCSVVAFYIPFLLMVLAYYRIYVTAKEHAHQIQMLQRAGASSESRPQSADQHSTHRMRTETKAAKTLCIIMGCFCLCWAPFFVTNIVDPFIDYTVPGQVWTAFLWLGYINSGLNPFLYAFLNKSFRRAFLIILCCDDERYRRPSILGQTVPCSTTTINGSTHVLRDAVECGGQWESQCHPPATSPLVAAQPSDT
Readout: Efficacy

{"Molecule": "CCCCN1CCC(COC(=O)c2cc(I)c(N)c3c2OCCO3)CC1 [Compound 1, reference compound]", "Readout": "Efficacy", "Value Observed": "inverse agonists"}
{"Molecule": "CCCCN1CCC(COC(=O)c2cc(Cl)c(NC)c3c2OCCO3)CC1", "Readout": "Efficacy", "Value Observed": "inverse agonists"}
{"Molecule": "CCCCN1CCC(COC(=O)c2cc(F)c(N)c3c2OCCO3)CC1", "Readout": "Efficacy", "Value Observed": "inverse agonists"}
{"Molecule": "CCCCN1CCC(COC(=O)c2ccc(N)c3c2OCCO3)CC1 [Compound 4, reference compound]", "Readout": "Efficacy", "Value Observed": "antagonists (inactive)"}
{"Molecule": "CCCCN1CCC(COC(=O)c2ccc(N)c(OC)c2)CC1", "Readout": "Efficacy", "Value Observed": "antagonists (inactive)"}

---

The following molecules are shown together with reported pKi values.
target: hGABAA; assay: NIMH-PDSP binding screen; conditions: read-out: Binding affinities (Ki) hGABAA
pKi: −log10 of the molar value.

{"Given Smiles": "CCCCN1CCC(COC(=O)c2ccc(N)c(OC)c2)CC1", "pKi": "< 5.00"}
{"Given Smiles": "CCCCN1CCC(COC(=O)c2cc(Cl)c(NC)c3c2OCCO3)CC1", "pKi": "< 5.00"}

---

target: BZP (rat brain site); assay: NIMH-PDSP binding screen; conditions: read-out: Binding affinities (Ki) BZP (rat brain site)
The following compounds are shown together with reported Ki values.

{"Given Smiles": "CCCCN1CCC(COC(=O)c2ccc(N)c(OC)c2)CC1", "Ki": "> 10 µM"}
{"Given Smiles": "CCCCN1CCC(COC(=O)c2cc(Cl)c(NC)c3c2OCCO3)CC1", "Ki": "> 10 µM"}

---

molecular target: h5-HT1E (Homo sapiens, UniProt P28566); test: NIMH-PDSP binding screen
Sequence (P28566 whole entry): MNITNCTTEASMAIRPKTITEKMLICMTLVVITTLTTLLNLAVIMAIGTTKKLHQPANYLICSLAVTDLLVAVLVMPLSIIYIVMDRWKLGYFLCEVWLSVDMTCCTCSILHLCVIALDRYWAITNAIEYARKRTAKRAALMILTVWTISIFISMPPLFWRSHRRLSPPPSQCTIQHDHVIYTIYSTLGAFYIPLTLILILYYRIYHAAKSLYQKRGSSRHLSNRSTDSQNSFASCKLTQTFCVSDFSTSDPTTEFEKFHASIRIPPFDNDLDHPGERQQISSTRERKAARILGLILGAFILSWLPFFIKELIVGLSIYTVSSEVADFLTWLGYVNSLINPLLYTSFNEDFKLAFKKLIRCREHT

{"Given Smiles": "CCCCN1CCC(COC(=O)c2cc(Cl)c(NC)c3c2OCCO3)CC1", "Target Under Test": "h5-HT1E (Homo sapiens, UniProt P28566)", "Ki": "> 10 µM"}
